All figures here come from ChEMBL document CHEMBL1132468.

These molecules were tested on UniProt P30551; IC50 is the recorded read-out.
Sequence (P30551 whole entry): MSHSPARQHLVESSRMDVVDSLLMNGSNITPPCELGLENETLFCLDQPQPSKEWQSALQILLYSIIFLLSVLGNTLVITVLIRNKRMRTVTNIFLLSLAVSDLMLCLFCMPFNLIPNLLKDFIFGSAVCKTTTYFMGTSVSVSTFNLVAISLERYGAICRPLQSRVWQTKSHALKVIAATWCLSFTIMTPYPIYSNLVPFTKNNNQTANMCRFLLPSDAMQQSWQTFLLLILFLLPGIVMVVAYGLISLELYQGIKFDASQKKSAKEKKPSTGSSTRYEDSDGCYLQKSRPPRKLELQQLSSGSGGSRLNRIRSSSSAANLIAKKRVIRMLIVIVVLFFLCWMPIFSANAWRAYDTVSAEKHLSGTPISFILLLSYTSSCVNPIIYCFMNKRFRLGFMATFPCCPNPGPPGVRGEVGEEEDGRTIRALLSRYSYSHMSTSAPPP
Unit nM implied. Number only.

Complete the entry with IC50 for CC(C)(C)OC(=O)N[C@@H](Cc1c[nH]c2ccccc12)C(=O)N[C@@H]1CCCN2C(=O)N(Cc3ccccc3)C(=O)CC12 (single isomer, unassigned)
1.59

Complete the entry with IC50 for `O=C(N[C@H]1CCCN2C(=O)N(Cc3ccccc3)C(=O)C[C@@H]12)[C@H](Cc1c[nH]c2ccccc12)NC(=O)C12CC3CC(CC(C3)C1)C2`
486
